Source listed as patent EP1369114A1.

Tested on: T cells stimulated by allogeneic DCs
MEASUREMENT PROTOCOL: Allogeneic T-cell response: lymphocyte proliferation induced by allogeneic dendritic cells, 3[H]-thymidin incorporation
Format: cell-based, human
EXPERIMENTAL CONDITIONS: Homo sapiens, T-cell, 144 h, 6 days, 3[H]-thymidin incorporation, read-out: 50% inhibition (I50) of proliferation of T cells stimulated by allogeneic DCs
Procedure: DCs were generated from CD14-positive blood monocytes as previously described ("Schuler G. and N. Romani", 1997, Adv. Exp. Med. Biol. 417:7-13). […] • (a) Allogeneic T-cell response. […] After 2 days, cell proliferation was assessed by measuring ^3[H]-thymidin incorporation (cpm) as described. • (c) Tryptophan metabolite titration curves. […] After 2 days, ^3[H] thymidin was added and the number of counts recorded. […] After another 2 days, ^3[H] thymidin was added and cpm determined. […]
QUANTITY MEASURED: pIC50
// pIC50: -log10(molar conc.)

Record request: pIC50 value, item Nc1ccccc1C(=O)CC(N)C(=O)O (stereo not shown) [kynurenine]
3.80
